Biological target: UniProtKB Q8TDV5
Sequence (whole entry): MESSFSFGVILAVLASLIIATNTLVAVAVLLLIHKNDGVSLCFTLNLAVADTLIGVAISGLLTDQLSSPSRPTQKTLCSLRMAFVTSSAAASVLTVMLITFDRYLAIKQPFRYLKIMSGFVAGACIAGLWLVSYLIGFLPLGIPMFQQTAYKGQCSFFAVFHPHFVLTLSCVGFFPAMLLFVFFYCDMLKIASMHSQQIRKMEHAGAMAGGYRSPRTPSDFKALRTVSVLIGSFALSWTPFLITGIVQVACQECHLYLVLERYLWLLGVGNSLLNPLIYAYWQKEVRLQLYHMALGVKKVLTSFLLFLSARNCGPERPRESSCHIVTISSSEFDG
Experiment: Agonist activity at human GPR119 receptor expressed in CHO-K1 cells co-transfected with 6CRE-Luc after 5 hrs by luciferase reporter gene assay relative to N-(4-(1H-1,2,4-triazol-1-yl)phenyl)-5-nitro-6-(4-(pyridin-2-ylthio)piperidin-1-yl)pyrimidin-4-amine maximal response
Assay type: functional, cell-based
As shown below, each of these compounds has a reported Activity value.
QUANTITY NAME: Activity (%)

# INPUT SMILES, QUANTITY NAME, RESULT UNITS, REPORTED
records = [
    ("CCCS(=O)(=O)N1CCN(c2ccc(OCC3CCN(C(=O)OC(C)C)CC3)cn2)CC1", "Activity", "%", 153),
    ("CCS(=O)(=O)N1CCN(c2ccc(OCCC3CCN(C(=O)OC(C)C)CC3)cn2)CC1", "Activity", "%", 69),
    ("CCCCS(=O)(=O)N1CCN(c2ccc(OCC3CCN(C(=O)OC(C)C)CC3)cn2)CC1", "Activity", "%", 164),
    ("CCCS(=O)(=O)N1CCN(c2ccc(OCCC3CCN(C(=O)OC(C)C)CC3)cn2)CC1", "Activity", "%", 95),
    ("CCCS(=O)(=O)N1CCN(c2ccc(OCC3CCN(C(=O)c4ccco4)CC3)cn2)CC1", "Activity", "%", 112),
    ("CCCS(=O)(=O)N1CCN(c2ccc(OCC3CCN(C(=O)NC4CCCCC4)CC3)cn2)CC1", "Activity", "%", 16),
    ("CCN(CC)S(=O)(=O)N1CCN(c2ccc(OCC3CCN(C(=O)OC(C)C)CC3)cn2)CC1", "Activity", "%", 125),
    ("CCCS(=O)(=O)N1CCN(c2ccc(OCC3CCN(C(=O)Nc4ccc(C(C)C)cc4)CC3)cn2)CC1", "Activity", "%", 67),
    ("CCS(=O)(=O)N1CCN(c2ccc(OC3CCN(C(=O)OC(C)C)CC3)cn2)CC1", "Activity", "%", 93),
    ("CC(C)OC(=O)N1CCC(COc2ccc(N3CCN(S(=O)(=O)N4CCCCC4)CC3)nc2)CC1", "Activity", "%", 118),
]
